Provide the reported Activity of each item.
Target: Cannabinoid receptor 1 (Rattus norvegicus) (UniProt P20272)
Sequence (P20272 whole entry): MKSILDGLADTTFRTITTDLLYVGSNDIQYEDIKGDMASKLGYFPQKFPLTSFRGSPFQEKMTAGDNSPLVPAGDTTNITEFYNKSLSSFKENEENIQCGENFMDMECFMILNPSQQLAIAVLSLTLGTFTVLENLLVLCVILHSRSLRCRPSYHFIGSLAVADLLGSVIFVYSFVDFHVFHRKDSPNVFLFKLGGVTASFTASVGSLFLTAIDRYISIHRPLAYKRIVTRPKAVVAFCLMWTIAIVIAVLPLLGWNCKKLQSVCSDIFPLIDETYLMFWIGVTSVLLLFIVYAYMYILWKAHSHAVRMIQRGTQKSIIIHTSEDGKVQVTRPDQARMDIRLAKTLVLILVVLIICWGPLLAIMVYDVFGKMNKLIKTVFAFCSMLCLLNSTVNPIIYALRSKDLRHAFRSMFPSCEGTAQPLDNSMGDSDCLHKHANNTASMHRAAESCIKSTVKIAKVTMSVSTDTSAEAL
Experiment: […] activity at HU210-induced CB1 receptor in rat cerebellar membrane at 10 uM
Format: functional, cell membranes
Conditions: Cerebellum
Give bare numbers, in %.

Would you please look over these solved cases?
- molecule: "CCCCCOc1c(OC)ccc2cc(C(=O)NCc3ccc(O)c(O)c3)c(O)nc12"
  measure: "Activity"
  measurement: 85
- molecule: "CCCCCOc1c(OC)ccc2cc(C(=O)NCCc3c[nH]c4ccccc34)c(O)nc12"
  measure: "Activity"
  measurement: 72

Working through the 4 molecules below one at a time, give Activity for each.
1. CCCCCOc1c(OC)ccc2cc(C(=O)NCCc3ccccc3)c(=O)[nH]c12
2. CCCCCOc1c(OC)ccc2cc(C(=O)NCCc3ccc(N)cc3)c(O)nc12
3. CCCCCOc1c(OC)ccc2cc(C(=O)NCCc3ccc(O)cc3)c(O)nc12
4. CCCCCOc1c(OC)ccc2cc(C(=O)Nc3ccccc3N)c(O)nc12

Completion:
[61, 74, 68, 82]

Working through the 4 molecules below one at a time, give Activity for each.
1. CCCCCOc1c(OC)ccc2cc(C(=O)NCCCc3ccccc3)c(=O)[nH]c12
2. CCCCCOc1c(OC)ccc2cc(C(=O)NCCc3ccc(O)c(O)c3)c(O)nc12
3. CCCCCOc1c(OC)ccc2cc(NC(=O)Cc3ccc4c(c3)OCO4)c(O)nc12
4. CCCCCOc1c(OC)ccc2cc(C(=O)NCc3ccc4c(c3)OCO4)c(=O)[nH]c12

Completion:
1: 59; 2: 63; 3: 75; 4: 78

Working through the 2 molecules below one at a time, give Activity for each.
1. CCCCCOc1c(OC)ccc2cc(C(=O)NCCc3ccc([N+](=O)[O-])cc3)c(O)nc12
2. CCCCCOc1c(OC)ccc2cc(C(=O)NCCc3ccc(Cl)cc3)c(=O)[nH]c12

Completion:
1. 65
2. 64

Working through the 2 molecules below one at a time, give Activity for each.
1. Cc1ccc(Cn2nc(C(=O)NC3C4(C)CCC(C4)C3(C)C)cc2-c2ccc(Cl)c(C)c2)cc1 (centres undefined)
2. CCCCCOc1c(OC)ccc2cc(C(=O)NCc3ccccc3)c(O)nc12

Completion:
[53, 79]
